All values here come from the kinase profiling compilation of Christmann-Franck et al. (2016).

# STUDY TARGET: EPHB3 (human)
# METHOD SUMMARY: KINOMEscan competition binding
# TEST CONTEXT: compound 10.0 µM
ASSAY METRIC: kinase still bound, per cent of control (%)
// units = %; emit number, no label

Solved entries (count: 6):
CCN1CCN(Cc2ccc(Nc3ncc4c(n3)N(C)c3ccccc3C(=O)N4C)cc2C(F)(F)F)CC1
80
Nc1ccc(-c2ccc3ncc4ccc(=O)n(-c5cccc(C(F)(F)F)c5)c4c3c2)cn1
100
C=CC(=O)Nc1cccc(Oc2nc(Nc3ccc(N4CCN(C)CC4)cc3OC)ncc2Cl)c1
100
C=CC(=O)Nc1cccc(Nc2nc(N[C@H]3CC[C@H](N(C)C)CC3)nc3c2ncn3C(C)C)c1
83
Cc1ccc(C(=O)Nc2cccc(C(F)(F)F)c2)cc1Nc1cncc(C(N)=O)c1
3.3
C=CC(=O)Nc1cc(NC(=O)c2ccc(C)c(NC(=O)c3ccno3)c2)cc(C(F)(F)F)c1
99

May I ask what kinase still bound, per cent of control has been recorded for O=C(NC1CC1)c1cccc(-c2ccc3c(NC(=O)C4CC4)n[nH]c3c2)c1 ? 100

What do you get for Cc1ccc(NC(=O)c2cccc(C(C)(C)C#N)c2)cc1Nc1ccc2ncn(C)c(=O)c2c1 ? 0

What do you get for OCCCNc1cc(-c2ccnc(Nc3cccc(Cl)c3)n2)ccn1 ? 100

What do you get for COc1cc(N2CCN(C)CC2)ccc1Nc1nc(N)c(C(=O)c2c(Cl)cccc2Cl)s1 ? 0

What do you get for CCCS(=O)(=O)Nc1ccc(F)c(C(=O)c2c[nH]c3ncc(-c4ccc(Cl)cc4)cc23)c1F ? 100

What do you get for O=C(O)c1ccc(Nc2ncc3c(n2)-c2ccc(Cl)cc2C(c2c(F)cccc2F)=NC3)cc1 ? 29

What do you get for C[C@@H](Oc1cc(-n2cnc3ccc(CN4CCN(C)CC4)cc32)sc1C(N)=O)c1ccccc1C(F)(F)F ? 100

====

# STUDY TARGET: CLK2 (human) (UniProt P49760)
# Sequence (P49760 whole entry, looked up): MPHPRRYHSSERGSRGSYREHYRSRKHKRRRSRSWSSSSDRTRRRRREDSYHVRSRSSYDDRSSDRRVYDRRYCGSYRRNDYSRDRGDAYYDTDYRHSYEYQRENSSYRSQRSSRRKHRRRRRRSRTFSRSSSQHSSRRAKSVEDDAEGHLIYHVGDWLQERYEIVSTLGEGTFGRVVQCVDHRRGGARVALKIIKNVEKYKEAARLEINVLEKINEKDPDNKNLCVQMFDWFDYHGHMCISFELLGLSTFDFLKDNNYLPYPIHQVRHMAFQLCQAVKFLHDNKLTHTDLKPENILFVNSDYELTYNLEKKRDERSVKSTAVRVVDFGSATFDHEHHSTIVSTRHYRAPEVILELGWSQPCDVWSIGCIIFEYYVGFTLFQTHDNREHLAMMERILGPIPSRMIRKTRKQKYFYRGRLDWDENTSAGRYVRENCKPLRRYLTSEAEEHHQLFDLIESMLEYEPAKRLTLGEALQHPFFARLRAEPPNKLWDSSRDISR
# METHOD SUMMARY: KINOMEscan competition binding
# TEST CONTEXT: compound 10.0 µM
ASSAY METRIC: kinase still bound, per cent of control (%)
// units = %; emit number, no label

Solved entries (count: 5):
Cn1c(=O)n(-c2ccc(C(C)(C)C#N)cc2)c2c3cc(-c4cnc5ccccc5c4)ccc3ncc21
100
CN(C)C/C=C/C(=O)Nc1cccc(Nc2ncc3c(n2)N(C)c2ccccc2C(=O)N3C)c1
41
COc1cc(N2CCN(C)CC2)ccc1Nc1nc(N)c(C(=O)c2c(Cl)cccc2Cl)s1
13
C=CC(=O)Nc1cccc(Oc2nc(Nc3ccc(N4CCN(C)CC4)cc3OC)ncc2Cl)c1
100
Cc1ccc(NC(=O)c2cccc(C(C)(C)C#N)c2)cc1Nc1ccc2ncn(C)c(=O)c2c1
100

Item: C[C@@H](Oc1cc(-n2cnc3ccc(CN4CCN(C)CC4)cc32)sc1C(N)=O)c1ccccc1C(F)(F)F Test system: CLK2 (human) (UniProt P49760) Read-out: kinase still bound, per cent of control Value: ? 69

What do you get for OCCCNc1cc(-c2ccnc(Nc3cccc(Cl)c3)n2)ccn1 ? 0.3

What do you get for CCOc1cc2ncc(C#N)c(Nc3ccc(OCc4ccccn4)c(Cl)c3)c2cc1NC(=O)/C=C/CN(C)C ? 100

What do you get for O=C(O)c1ccc(Nc2ncc3c(n2)-c2ccc(Cl)cc2C(c2c(F)cccc2F)=NC3)cc1 ? 7.4

====

# STUDY TARGET: DAPK3 (human) (UniProt O43293)
# Sequence (O43293 whole entry, looked up): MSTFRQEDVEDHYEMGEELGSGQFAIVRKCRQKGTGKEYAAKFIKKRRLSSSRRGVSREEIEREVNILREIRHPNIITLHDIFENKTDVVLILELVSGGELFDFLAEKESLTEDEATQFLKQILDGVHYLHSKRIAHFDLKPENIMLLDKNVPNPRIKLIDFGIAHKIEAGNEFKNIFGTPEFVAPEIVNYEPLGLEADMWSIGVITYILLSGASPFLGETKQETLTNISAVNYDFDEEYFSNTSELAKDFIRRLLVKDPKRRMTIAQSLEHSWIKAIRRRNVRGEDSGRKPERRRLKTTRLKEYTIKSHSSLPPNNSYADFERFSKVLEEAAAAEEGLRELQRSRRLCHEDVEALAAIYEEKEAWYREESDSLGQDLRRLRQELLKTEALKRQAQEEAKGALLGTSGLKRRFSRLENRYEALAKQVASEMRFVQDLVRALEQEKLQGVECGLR
# METHOD SUMMARY: KINOMEscan competition binding
# TEST CONTEXT: compound 10.0 µM
This section presents compounds with their documented kinase still bound, per cent of control values.

Solved entries (count: 5):
CCN1CCN(Cc2ccc(Nc3ncc4c(n3)N(C)c3ccccc3C(=O)N4C)cc2C(F)(F)F)CC1
79%
O=C1Nc2ccc(I)cc2/C1=C/c1cc(Br)c(O)c(Br)c1
2.6%
OCCCNc1cc(-c2ccnc(Nc3cccc(Cl)c3)n2)ccn1
100%
O=C(NOC[C@H](O)CO)c1ccc(F)c(F)c1Nc1ccc(I)cc1F
100%
O=C(NC1CC1)c1cccc(-c2ccc3c(NC(=O)C4CC4)n[nH]c3c2)c1
69%

May I ask what kinase still bound, per cent of control has been recorded for C=CC(=O)Nc1cccc(Nc2nc(N[C@H]3CC[C@H](N(C)C)CC3)nc3c2ncn3C(C)C)c1 ? 23%

What do you get for COc1cc(C(=O)NC2CCN(C)CC2)ccc1Nc1ncc2c(n1)N(C1CCCC1)C(C)CC(=O)N2C (centres undefined) ? 17%

What do you get for CN(C)C/C=C/C(=O)Nc1cccc(Nc2ncc3c(n2)N(C)c2ccccc2C(=O)N3C)c1 ? 45%

What do you get for Cn1c(=O)n(-c2ccc(C(C)(C)C#N)cc2)c2c3cc(-c4cnc5ccccc5c4)ccc3ncc21 ? 100%

====

# STUDY TARGET: PRKG2 (human)
# METHOD SUMMARY: KINOMEscan competition binding
# TEST CONTEXT: compound 10.0 µM
Decision: kinase still bound, per cent of control beneath 90% gives 1 (yes); kinase still bound, per cent of control meeting or exceeding 90% gives 0 (no).

Reference set (4 entries):
C=CC(=O)Nc1cccc(Oc2nc(Nc3ccc(N4CCN(C)CC4)cc3OC)ncc2Cl)c1
0 (no)
CCC(=O)N1CCN(c2ccc(-n3c(=O)ccc4cnc5ccc(-c6cnc7ccccc7c6)cc5c43)cc2C(F)(F)F)CC1
1 (yes)
C[C@@H](Oc1cc(-n2cnc3ccc(CN4CCN(C)CC4)cc32)sc1C(N)=O)c1ccccc1C(F)(F)F
0 (no)
CN(C)C/C=C/C(=O)Nc1cccc(Nc2ncc3c(n2)N(C)c2ccccc2C(=O)N3C)c1
1 (yes)

# check: kinase still bound, per cent of control < 90% for CC[C@@H]1C(=O)N(C)c2cnc(Nc3ccc(C(=O)NC4CCN(C)CC4)cc3OC)nc2N1C1CCCC1 0 (no)

What do you get for C=CC(=O)Nc1cc(NC(=O)c2ccc(C)c(NC(=O)c3ccno3)c2)cc(C(F)(F)F)c1 ? 0 (no)

What do you get for CCN1CCN(Cc2ccc(Nc3ncc4c(n3)N(C)c3ccccc3C(=O)N4C)cc2C(F)(F)F)CC1 ? 1 (yes)

What do you get for Cc1ccc2nc(NCCN)c3ncc(C)n3c2c1 ? 0 (no)

====

# Test system: PIK3CA (human), P42336 [E545K]
# Sequence (P42336 whole entry E545K, looked up): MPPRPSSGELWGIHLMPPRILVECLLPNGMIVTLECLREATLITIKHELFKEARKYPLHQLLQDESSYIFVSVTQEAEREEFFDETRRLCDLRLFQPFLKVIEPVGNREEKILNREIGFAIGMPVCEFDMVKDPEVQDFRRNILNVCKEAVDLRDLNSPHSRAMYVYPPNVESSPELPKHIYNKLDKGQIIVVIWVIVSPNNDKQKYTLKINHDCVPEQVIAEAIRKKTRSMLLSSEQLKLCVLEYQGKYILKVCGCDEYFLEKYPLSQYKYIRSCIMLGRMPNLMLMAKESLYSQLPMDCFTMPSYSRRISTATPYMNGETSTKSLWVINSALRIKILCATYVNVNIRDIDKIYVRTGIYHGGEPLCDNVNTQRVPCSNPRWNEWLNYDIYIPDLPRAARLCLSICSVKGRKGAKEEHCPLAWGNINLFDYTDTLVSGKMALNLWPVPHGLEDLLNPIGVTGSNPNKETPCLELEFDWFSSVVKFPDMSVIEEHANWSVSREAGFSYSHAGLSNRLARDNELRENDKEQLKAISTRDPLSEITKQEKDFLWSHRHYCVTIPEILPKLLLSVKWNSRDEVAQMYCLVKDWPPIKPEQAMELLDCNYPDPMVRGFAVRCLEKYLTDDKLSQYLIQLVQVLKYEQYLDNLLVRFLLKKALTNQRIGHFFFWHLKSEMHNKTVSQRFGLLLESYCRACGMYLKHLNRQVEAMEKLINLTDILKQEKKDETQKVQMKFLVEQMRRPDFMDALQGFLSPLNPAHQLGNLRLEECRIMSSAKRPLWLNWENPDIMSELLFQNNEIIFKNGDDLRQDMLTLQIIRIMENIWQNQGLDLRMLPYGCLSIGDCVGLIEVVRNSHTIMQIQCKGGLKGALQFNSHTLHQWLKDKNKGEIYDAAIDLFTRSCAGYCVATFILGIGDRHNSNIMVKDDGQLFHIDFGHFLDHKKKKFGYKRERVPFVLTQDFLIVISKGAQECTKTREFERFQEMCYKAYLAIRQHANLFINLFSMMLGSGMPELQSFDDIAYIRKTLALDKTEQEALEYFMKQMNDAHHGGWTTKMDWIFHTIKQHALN
# METHOD SUMMARY: KINOMEscan competition binding
# TEST CONTEXT: compound 10.0 µM
This section presents molecules with their documented kinase still bound, per cent of control values.
// units = %; emit number, no label

Solved entries (count: 5):
Cc1cn(-c2cc(C(=O)Nc3ccc(C)c(NC(=O)c4ccno4)c3)cc(C(F)(F)F)c2)cn1
100
CCN(CC)CCCCNc1ncc2c(n1)N(C)C(=O)N(c1c(Cl)c(OC)cc(OC)c1Cl)C2
100
Cc1ccc(NC(=O)c2cccc(C(C)(C)C#N)c2)cc1Nc1ccc2ncn(C)c(=O)c2c1
100
Cc1ccc(C(=O)Nc2cccc(C(F)(F)F)c2)cc1Nc1cncc(C(N)=O)c1
100
CS(=O)(=O)N1CCN(Cc2cc3nc(-c4cccc5[nH]ncc45)nc(N4CCOCC4)c3s2)CC1
0.3

May I ask what kinase still bound, per cent of control has been recorded for N#C/C(=C1/Nc2ccccc2S1)c1ccnc(NCCc2cccnc2)n1 ? 96

What do you get for C=CC(=O)Nc1cc(-n2c(=O)ccc3cnc4ccc(-c5cn[nH]c5)cc4c32)ccc1C ? 21

What do you get for COc1ccc(N(C(=O)Oc2c(C)cccc2C)c2ccnc(Nc3ccc(N4CCN(C)CC4)cc3)n2)c(OC)c1 ? 100

What do you get for COc1ccc(N(C(=O)Oc2cc(C(=O)Nc3cccc(C(F)(F)F)c3)ccc2C)c2ccnc(Nc3ccc(N4CCN(C)CC4)cc3)n2)c(OC)c1 ? 100

What do you get for O=C1NC(=O)/C(=C/c2ccc3nccc(-c4ccncc4)c3c2)S1 ? 0.75

What do you get for CCN(CCO)CCCOc1ccc2c(Nc3cc(CC(=O)Nc4cccc(F)c4)[nH]n3)ncnc2c1 ? 100

What do you get for CN(C)C/C=C/C(=O)Nc1cccc(Nc2ncc3c(n2)N(C)c2ccccc2C(=O)N3C)c1 ? 100

What do you get for CNC(=O)Nc1ccc(-c2nc(N3CC4CCC(C3)O4)c3cnn(C4CCC5(CC4)OCCO5)c3n2)cc1 ? 11

====

# STUDY TARGET: MAPKAPK2 (human)
# METHOD SUMMARY: KINOMEscan competition binding
# TEST CONTEXT: compound 10.0 µM
ASSAY METRIC: kinase still bound, per cent of control (%)
// units = %; emit number, no label

Solved entries (count: 5):
CCCS(=O)(=O)Nc1ccc(F)c(C(=O)c2c[nH]c3ncc(-c4ccc(Cl)cc4)cc23)c1F
100
O=C1Nc2ccc(I)cc2/C1=C/c1cc(Br)c(O)c(Br)c1
100
CCC(=O)N1CCN(c2ccc(-n3c(=O)ccc4cnc5ccc(-c6cnc7ccccc7c6)cc5c43)cc2C(F)(F)F)CC1
100
N#Cc1c(NC(=O)c2cccc3ccccc23)sc2c1CCCC2
93
COc1cc(N2CCN(C)CC2)ccc1Nc1nc(N)c(C(=O)c2c(Cl)cccc2Cl)s1
100

// below: kinase still bound, per cent of control requested for another molecule
May I ask what kinase still bound, per cent of control has been recorded for O=C(NOC[C@H](O)CO)c1ccc(F)c(F)c1Nc1ccc(I)cc1F ? 84
